Assignment: determine reported TGI for the given compounds.
# Test system: HS 578T breast
# assay-method-text: NCI tumour cell line growth inhibition, 48 h
One number for each entry, in µM.

- molecular-string: "C#C[C@]1(O)CC[C@H]2[C@@H]3CC=C4c5sc(Nc6cc(Cl)ccc6OC)nc5CC[C@]4(C)[C@H]3CC[C@@]21C"
  scale-unit: "µM"
  TGI: 5.87

Now turn to the next compound.
Report TGI for O=C(Nc1cccc(-c2nc(-c3ccc(NC(=O)c4cccs4)cc3Cl)no2)c1)Nc1ccc(NC(=O)C2CC2)c(C(F)(F)F)c1 please.
0.678

---

# Tested on: RPMI-8226 leukemia
# assay-method-text: NCI tumour cell line growth inhibition, 48 h; in the data active means GI50 below about 0.43 µM; inactive means the rest
Outcome (select one): 1 (yes) (active), 0 (no) (inactive)

Illustrative cases are given below, each with its answer.
- compound: "Nc1nc(-c2cccc([N+](=O)[O-])c2)c(N=Nc2ccc(Br)cc2)s1"
  category-label: "0 (no)"
- compound: "C#C[C@]1(O)CC[C@H]2[C@@H]3CC=C4c5sc(Nc6cc(Cl)ccc6OC)nc5CC[C@]4(C)[C@H]3CC[C@@]21C"
  category-label: "1 (yes)"
- compound: "Cc1ccc(-c2csc(N/N=C/c3nc4ccccc4n3C3CC3)n2)cc1"
  category-label: "0 (no)"
- compound: "O=C(Nc1cccc(-c2nc(-c3ccc(NC(=O)c4cccs4)cc3Cl)no2)c1)Nc1ccc(NC(=O)C2CC2)c(C(F)(F)F)c1"
  category-label: "1 (yes)"

Kindly consider the entry below.
Could you kindly confirm the outcome this assay logged for CCC1=Cc2c(OC)cccc2OC12C=Cc1c(OC)cccc1O2 (stereo not given) ?
0 (no)

meta.source: PubChem BioAssay (NCI)
